These data points were gathered from ChEMBL document CHEMBL2046351.

Tested on: MDR1 (human)
Assay: Apparent permeability across MDCK cells expressing human MDR1 at 5 uM after 2 hrs by LC-MS analysis
Assay type: ADME, cell-based, Canis lupus familiaris
Conditions: dog

COMPOUND	Papp at 2 h, 5 µM, ×10⁻⁶ cm/s
CC(C)(C)c1cccc(CN[C@H]2CS(=O)(=O)C[C@@H](Cc3ccc4[nH]cc(CC(F)F)c4c3)[C@@H]2O)c1 (racemic)	6
CC(C)(C)c1cccc(CN[C@H]2CS(=O)(=O)C[C@@H](Cc3cc(F)c(N)c(-c4ccco4)c3)[C@@H]2O)c1	2
Nc1c(F)cc(C[C@@H]2CS(=O)(=O)C[C@H](N)[C@H]2O)cc1OC(C(F)(F)F)C(F)(F)F	13
CC(C)(C)c1cccc(CN[C@H]2CS(=O)(=O)C[C@@H](Cc3cc(F)c(N)c(OCC(F)F)c3)[C@@H]2O)c1	22
CC(C)(C)c1cccc(CN[C@H]2CS(=O)(=O)C[C@@H](Cc3cc(F)c(N)c(OC4COC4)c3)[C@@H]2O)c1	23
CC(C)(C)c1cccc(CN[C@H]2CS(=O)(=O)C[C@@H](Cc3cc(F)c(N)c(-c4ccoc4)c3)[C@@H]2O)c1	3
CN(C)CC(=O)Nc1ccc(C[C@@H]2CS(=O)(=O)C[C@H](NCc3cccc(C(C)(C)C)c3)[C@H]2O)cc1F	6

###

Target: Cathepsin D (Homo sapiens)
Sequence (P07339 65-162 limits assumed): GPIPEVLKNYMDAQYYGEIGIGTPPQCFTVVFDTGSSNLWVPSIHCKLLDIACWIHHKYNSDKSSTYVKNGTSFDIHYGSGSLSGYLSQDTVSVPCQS
Sequence (P07339 169-412 limits assumed): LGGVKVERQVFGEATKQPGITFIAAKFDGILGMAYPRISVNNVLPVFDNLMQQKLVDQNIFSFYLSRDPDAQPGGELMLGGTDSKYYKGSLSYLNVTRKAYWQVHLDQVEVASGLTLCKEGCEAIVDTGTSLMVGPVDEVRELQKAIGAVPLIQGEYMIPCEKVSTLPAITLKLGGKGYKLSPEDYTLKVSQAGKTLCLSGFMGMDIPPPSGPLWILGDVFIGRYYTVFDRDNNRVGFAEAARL
Experiment: Inhibition of human recombinant CatD using Mca-GKPILFFRLK(DNP)-dR-NH2 as substrate after 1 hr by fluorescence analysis
pIC50: −log10 of the molar value.
OBSERVABLE: pIC50

COMPOUND	TARGET	MEASURED NUMBER
CC(C)(C)Cn1cc(CN[C@H]2CS(=O)(=O)C[C@@H](Cc3cc(F)c(N)c(OC(C(F)(F)F)C(F)(F)F)c3)[C@@H]2O)cn1	Cathepsin D (Homo sapiens)	5.55
CCCOc1cc(CC2CS(=O)(=O)CC(NCc3cccc(C(C)(C)C)c3)[C@H]2O)cc(F)c1N (single isomer, unassigned)	Cathepsin D (Homo sapiens)	5.65
CC(C)(C)c1cccc(CN[C@H]2CS(=O)(=O)C[C@@H](Cc3cc(F)c(N)c(OCCC(F)(F)F)c3)[C@@H]2O)c1	Cathepsin D (Homo sapiens)	5.62
CCc1cc(C[C@@H]2CS(=O)(=O)C[C@H](NCc3cccc(C(C)(C)C)c3)[C@H]2O)cc(F)c1NC(C)=O	Cathepsin D (Homo sapiens)	5.64
CC(C)(C)c1cccc(CN[C@H]2CS(=O)(=O)C[C@@H](Cc3ccc(N)c(OCC(F)(F)F)c3)[C@@H]2O)c1	Cathepsin D (Homo sapiens)	5.36
CC(C)(C)c1cccc(CN[C@H]2CS(=O)(=O)C[C@@H](Cc3ccc(N)c(OC(F)(F)F)c3)[C@@H]2O)c1 (racemic)	Cathepsin D (Homo sapiens)	5.10
CC(C)(C)c1cccc(CN[C@H]2CS(=O)(=O)C[C@@H](Cc3cc(F)c(N)c(-c4ccoc4)c3)[C@@H]2O)c1	Cathepsin D (Homo sapiens)	6.29

###

pIC50: −log10 of the molar value.
Reported values: pIC50 for Beta-secretase 1 (Homo sapiens), one per item.

COMPOUND	RELATION	pIC50
CC(C)(C)c1cccc(CN[C@H]2CS(=O)(=O)C[C@@H](Cc3cc(F)c4c(c3)C3(CCC3)CN4)[C@@H]2O)c1 (racemic)	=	6.25
CC(C)(C)c1cccc(CN[C@H]2CS(=O)(=O)C[C@@H](Cc3cc(F)c(N)c(C4CC4)c3)[C@@H]2O)c1	=	7.03
CCCc1cc(C[C@@H]2CS(=O)(=O)C[C@H](NCc3cccc(C(C)(C)C)c3)[C@H]2O)cc(F)c1N	=	6.89
CCc1cc(C[C@@H]2CS(=O)(=O)C[C@H](NCc3cccc(C(C)(C)C)c3)[C@H]2O)cc(F)c1NC(C)=O	=	8.10
CCc1cc(C[C@@H]2CS(=O)(=O)C[C@H](NCc3cccc(C(C)(C)C)c3)[C@H]2O)cc(F)c1N	=	6.06
C[C@@H](Oc1cc(C[C@@H]2CS(=O)(=O)C[C@H](NCc3cccc(C(C)(C)C)c3)[C@H]2O)cc(F)c1N)C(F)(F)F	=	8.52
CCCOc1cccc(C[C@@H]2CS(=O)(=O)C[C@H](NCc3cccc(C(C)(C)C)c3)[C@H]2O)c1 (relative stereo)	=	6.17
CC(C)(C)c1cccc(CN[C@H]2CS(=O)(=O)C[C@@H](Cc3cc(F)c(N)c(CCC(F)(F)F)c3)[C@@H]2O)c1	=	6.89
CC(C)(C)c1cccc(CN[C@H]2CS(=O)(=O)C[C@@H](Cc3cc(F)c(N)c(OCC(F)(F)F)c3)[C@@H]2O)c1	=	8.22
CC(C)(C)Cn1cc(CN[C@H]2CS(=O)(=O)C[C@@H](Cc3cc(F)c(N)c(OC(C(F)(F)F)C(F)(F)F)c3)[C@@H]2O)cn1	=	7.44
CC(C)(O)c1cccc(CN[C@H]2CS(=O)(=O)C[C@@H](Cc3cc(F)c(N)c(OC(C(F)(F)F)C(F)(F)F)c3)[C@@H]2O)c1	=	8.70
CC(C)(C)c1ccnc(CN[C@H]2CS(=O)(=O)C[C@@H](Cc3cc(F)c(N)c(OC(C(F)(F)F)C(F)(F)F)c3)[C@@H]2O)c1	=	7.17
CCCOc1cc(C[C@@H]2CS(=O)(=O)C[C@H](NCc3cccc(C(C)(C)C)c3)[C@H]2O)ccc1N	=	7.35
CC(C)(C)c1cccc(CN[C@H]2CS(=O)(=O)C[C@@H](Cc3cc(F)c(N)c(OCCF)c3)[C@@H]2O)c1	=	7.37
Nc1c(F)cc(C[C@@H]2CS(=O)(=O)C[C@H](N)[C@H]2O)cc1OC(C(F)(F)F)C(F)(F)F	<	5.00
